target: Human recombinant Monoamine Oxidase B (Homo sapiens); construct: purchased Sigma Aldrich M7441; assay: MAOs inhibitory assay (fluorescence-based microplate), MAO-B; format: biochemical; conditions: recombinant enzyme; inhibitor incubated 37 °C 3 h, borate buffer pH 8.4; mean IC50
Sequence (P27338 whole entry): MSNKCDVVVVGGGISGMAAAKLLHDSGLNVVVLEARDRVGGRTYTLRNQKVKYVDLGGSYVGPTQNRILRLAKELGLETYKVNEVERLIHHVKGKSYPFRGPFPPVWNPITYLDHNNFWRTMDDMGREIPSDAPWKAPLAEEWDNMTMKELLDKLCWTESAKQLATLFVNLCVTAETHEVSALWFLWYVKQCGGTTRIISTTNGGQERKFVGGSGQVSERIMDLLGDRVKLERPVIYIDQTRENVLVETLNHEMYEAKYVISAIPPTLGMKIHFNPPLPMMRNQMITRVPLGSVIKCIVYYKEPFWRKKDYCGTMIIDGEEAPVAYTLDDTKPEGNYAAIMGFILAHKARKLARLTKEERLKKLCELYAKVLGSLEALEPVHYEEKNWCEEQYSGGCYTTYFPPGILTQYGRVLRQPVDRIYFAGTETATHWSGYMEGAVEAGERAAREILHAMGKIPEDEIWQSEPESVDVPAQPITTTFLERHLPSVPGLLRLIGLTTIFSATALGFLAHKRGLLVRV
METRIC: IC50
Lab note: write values as number then unit, every time.

Consider the reported IC50 for these compounds:
Challenge: Please provide the recorded IC50 for `NC(=O)COc1ccc2ccccc2c1` , tested on Human recombinant Monoamine Oxidase B (Homo sapiens).
Response given: 542 µM

Challenge: Please provide the recorded IC50 for `COC(=O)c1ccccc1OCC(N)=O` , tested on Human recombinant Monoamine Oxidase B (Homo sapiens).
Response given: 98 µM

Challenge: Please provide the recorded IC50 for `CC(C)(C)OC(=O)Nc1ccc(OCC(N)=O)cc1` , tested on Human recombinant Monoamine Oxidase B (Homo sapiens).
Response given: 296 µM

***
Challenge: Please provide the recorded IC50 for `NC(=O)COc1ccc(C=O)cc1` , tested on Human recombinant Monoamine Oxidase B (Homo sapiens).
Response given: 457 µM

Challenge: Please provide the recorded IC50 for `NC(=O)CSc1ccccc1` , tested on Human recombinant Monoamine Oxidase B (Homo sapiens).
Response given: 642 µM

Challenge: Please provide the recorded IC50 for `NC(=O)COc1ccc(Cl)cc1` , tested on Human recombinant Monoamine Oxidase B (Homo sapiens).
Response given: 202 µM

Challenge: Please provide the recorded IC50 for `COc1ccccc1OCC(N)=O` , tested on Human recombinant Monoamine Oxidase B (Homo sapiens).
Response given: 775 µM
